Data origin, for the record: the kinase profiling compilation of Christmann-Franck et al. (2016)

Biological target: DYRK2 (human) (UniProt Q92630)
Sequence (Q92630 whole entry, looked up): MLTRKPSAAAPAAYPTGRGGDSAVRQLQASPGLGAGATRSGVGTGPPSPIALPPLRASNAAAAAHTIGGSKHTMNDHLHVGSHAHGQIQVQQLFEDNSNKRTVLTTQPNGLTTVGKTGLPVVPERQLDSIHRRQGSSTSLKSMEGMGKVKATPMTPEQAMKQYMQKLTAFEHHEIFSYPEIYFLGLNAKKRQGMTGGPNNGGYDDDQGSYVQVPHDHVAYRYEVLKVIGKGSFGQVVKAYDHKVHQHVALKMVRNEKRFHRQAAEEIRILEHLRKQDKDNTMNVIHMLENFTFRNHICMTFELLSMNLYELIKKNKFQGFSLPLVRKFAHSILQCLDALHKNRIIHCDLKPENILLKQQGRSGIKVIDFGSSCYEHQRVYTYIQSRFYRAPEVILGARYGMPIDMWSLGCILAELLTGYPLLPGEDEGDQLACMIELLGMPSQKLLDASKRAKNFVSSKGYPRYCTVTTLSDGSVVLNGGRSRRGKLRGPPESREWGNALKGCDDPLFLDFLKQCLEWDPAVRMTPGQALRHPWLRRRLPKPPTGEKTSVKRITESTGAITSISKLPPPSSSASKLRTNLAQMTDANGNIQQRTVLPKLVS
Test: radiometric filter-binding kinase assay
Details: compound 1.0 µM
residual activity values for the compounds below.
measuredAttribute: residual activity (%)

smilesCode	val
O=c1c(O)c(-c2ccc(O)c(O)c2)oc2cc(O)c(O)c(O)c12	45
NCC(=O)Nc1ccc(-n2nc(C(F)(F)F)cc2-c2ccc3c(ccc4ccccc43)c2)cc1	89
N#Cc1c(C2CCNCC2)cc(-c2c(O)cccc2OCC2CC2)nc1N	91
NC(=O)c1cc(-c2ccnc(NC3CCCCC3)c2)nc(N2CCNCC2)c1	29
CCCCCc1ccc(/C=C/[C@H](O)[C@@H](CO)NC)cc1	124
Cc1ccc(-c2ccc3c(ccc4sc5c(c43)NC[C@@H](C)NC5=O)n2)cn1	105
Cc1cccc(Nc2nn(C)c3ncnc(N)c23)c1	93
COc1ccc(N(C(=O)Nc2c(C)cccc2C)c2cc(Nc3ccc(N4CCN(C)CC4)cc3)ncn2)c(OC)c1	93
O=C(NOC[C@H](O)CO)c1ccc(F)c(F)c1Nc1ccc(I)cc1Cl	99
NC(=O)c1cc2c(-c3cccc(-c4ccccc4)c3)cnc(N)c2s1	77
